# credit: ChEMBL document CHEMBL1938390

Assay: Solubility of the compound at pH 6.5
Type: physicochemical
Conditions: buffer
Answer false (0) if solubility is under 50 µg/mL, and true (1) if it is 50 µg/mL or more.

input_smiles: CCCS(=O)(=O)Nc1ccc(F)c(C(=O)Nc2cnc3[nH]nc(C4CC4)c3c2)c1Cl
cat: true (1)
//
input_smiles: CCCS(=O)(=O)Nc1ccc(F)c(C(=O)Nc2cnc3[nH]nc(C4CC4)c3c2)c1F
cat: false (0)
//
input_smiles: CC(C)CS(=O)(=O)Nc1ccc(F)c(C(=O)Nc2cnc3[nH]nc(C4CC4)c3c2)c1Cl
cat: false (0)
//
input_smiles: CCCS(=O)(=O)Nc1ccc(F)c(C(=O)Nc2cnc3[nH]nc(OC)c3c2)c1F
cat: false (0)

## Input Tell me whether solubility is at least 50 µg/mL here: CCCS(=O)(=O)Nc1ccc(F)c(C(=O)Nc2cnc3[nH]nc(C(C)C)c3c2)c1F
## Output false (0)

## Input Now this one: O=C(Nc1cnc2[nH]nc(C3CC3)c2c1)c1c(F)ccc(NS(=O)(=O)CCCF)c1Cl
## Output true (1)

## Input // same read-out, input: CCCS(=O)(=O)Nc1ccc(Cl)c(C(=O)Nc2cnc3[nH]nc(OC)c3c2)c1F
## Output false (0)

## Input Entry to check: CCCS(=O)(=O)Nc1ccc(F)c(C(=O)Nc2cnc3[nH]nc(OC)c3c2)c1Cl
## Output false (0)

====

Biological target: Serine/threonine-protein kinase B-raf (Homo sapiens, UniProt P15056, V600E)
Sequence (P15056 2-766 V600E limits assumed): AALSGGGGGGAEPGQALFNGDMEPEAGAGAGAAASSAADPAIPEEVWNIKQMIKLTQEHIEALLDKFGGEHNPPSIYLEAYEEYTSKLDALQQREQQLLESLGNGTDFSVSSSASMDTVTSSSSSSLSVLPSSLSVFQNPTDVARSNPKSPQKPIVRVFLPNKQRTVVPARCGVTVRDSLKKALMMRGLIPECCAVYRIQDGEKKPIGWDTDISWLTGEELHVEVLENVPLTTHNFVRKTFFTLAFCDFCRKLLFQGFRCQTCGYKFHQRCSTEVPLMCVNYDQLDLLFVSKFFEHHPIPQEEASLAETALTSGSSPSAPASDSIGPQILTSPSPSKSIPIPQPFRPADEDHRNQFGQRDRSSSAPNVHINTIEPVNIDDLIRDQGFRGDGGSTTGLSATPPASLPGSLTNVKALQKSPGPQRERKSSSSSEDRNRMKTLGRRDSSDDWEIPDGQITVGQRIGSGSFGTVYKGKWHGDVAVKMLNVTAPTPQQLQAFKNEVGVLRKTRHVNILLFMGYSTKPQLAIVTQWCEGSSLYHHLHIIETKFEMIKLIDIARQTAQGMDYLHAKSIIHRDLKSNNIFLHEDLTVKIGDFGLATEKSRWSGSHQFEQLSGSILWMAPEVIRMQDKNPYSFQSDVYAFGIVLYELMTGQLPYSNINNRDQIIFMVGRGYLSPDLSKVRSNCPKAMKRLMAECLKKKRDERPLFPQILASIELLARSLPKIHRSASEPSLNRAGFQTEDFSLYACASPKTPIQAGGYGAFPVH
Test: Inhibition of B-Raf V600E mutant-mediated Erk phosphorylation in human MALME-3M cells
Assay type: cell-based
Here, each record is paired with measured pIC50 data.
Scale: pIC50 equals -log10([C]), with [C] in mol/L.

## Input Quick check: pIC50 on Serine/threonine-protein kinase B-raf (Homo sapiens, UniProt P15056, V600E), item CCCS(=O)(=O)Nc1ccc(F)c(C(=O)Nc2cnc3[nH]nc(C4CC4)c3c2)c1Cl ?
## Output 7.48

## Input Then what about the molecule CC(C)CS(=O)(=O)Nc1ccc(F)c(C(=O)Nc2cnc3[nH]nc(C4CC4)c3c2)c1Cl ?
## Output 7.74

## Input Another molecule to check: CCCS(=O)(=O)Nc1ccc(F)c(C(=O)Nc2cnc3[nH]nc(OC)c3c2)c1Cl
## Output 7.72

## Input Repeat with CCCS(=O)(=O)Nc1ccc(F)c(C(=O)Nc2cnc3[nH]nc(C(C)C)c3c2)c1F
## Output 7.05

## Input And CCCS(=O)(=O)Nc1ccc(F)c(C(=O)Nc2cnc3[nH]nc(C4CC4)c3c2)c1F ?
## Output 7.64

## Input Follow-up item: O=C(Nc1cnc2[nH]nc(C3CC3)c2c1)c1c(F)ccc(NS(=O)(=O)CCCF)c1Cl
## Output 7.29

====

Molecular target: Serine/threonine-protein kinase B-raf (Homo sapiens, UniProt P15056, V600E)
Assay: Inhibition of full-length B-Raf V600E mutant
observed_property: pIC50
Reminder that pIC50 means the negative base-10 logarithm of the concentration expressed in mol/L.

Below, 4 compounds whose answers are already recorded.
input_smiles: CCCS(=O)(=O)Nc1ccc(F)c(C(=O)Nc2cnc3[nH]nc(C4CC4)c3c2)c1F
pIC50: 8.57
//
input_smiles: O=C(Nc1cnc2[nH]nc(C3CC3)c2c1)c1c(F)ccc(NS(=O)(=O)CCCF)c1Cl
pIC50: 9.22
//
input_smiles: CCCS(=O)(=O)Nc1ccc(F)c(C(=O)Nc2cnc3[nH]nc(C(C)C)c3c2)c1F
pIC50: 7.85
//
input_smiles: CCCS(=O)(=O)Nc1ccc(F)c(C(=O)Nc2cnc3[nH]nc(C4CC4)c3c2)c1Cl
pIC50: 8.42

## Input Given CCCS(=O)(=O)Nc1ccc(F)c(C(=O)Nc2cnc3[nH]nc(OC)c3c2)c1Cl , state its recorded pIC50.
## Output 8.66

## Input Also need CC(C)CS(=O)(=O)Nc1ccc(F)c(C(=O)Nc2cnc3[nH]nc(C4CC4)c3c2)c1Cl , thanks.
## Output 8.70

====

# Lookup of reported log10(solubility) keyed by entry
Test: Solubility of the compound at pH 7.4
Type: physicochemical
Settings: buffer
The common logarithm of solubility in µg/mL is what is listed.

Example cases with answers are listed next.
input_smiles: CCCS(=O)(=O)Nc1ccc(F)c(C(=O)Nc2cnc3[nH]nc(OC)c3c2)c1Cl
value_reported: 0.30

input_smiles: CCCS(=O)(=O)Nc1ccc(Cl)c(C(=O)Nc2cnc3[nH]nc(OC)c3c2)c1F
value_reported: 0.30

input_smiles: CCCS(=O)(=O)Nc1ccc(F)c(C(=O)Nc2cnc3[nH]nc(C4CC4)c3c2)c1Cl
value_reported: 2.10

input_smiles: CCCS(=O)(=O)Nc1ccc(F)c(C(=O)Nc2cnc3[nH]nc(OC)c3c2)c1F
value_reported: 0.95

input_smiles: CCCS(=O)(=O)Nc1ccc(F)c(C(=O)Nc2cnc3[nH]nc(C4CC4)c3c2)c1F
value_reported: 0.60

Now let's try a different one.
## Input Can you look up the measured log10(solubility) of O=C(Nc1cnc2[nH]nc(C3CC3)c2c1)c1c(F)ccc(NS(=O)(=O)CCCF)c1Cl for me?
## Output 2.42
